Where do these numbers come from? They come from BindingDB's records for PubMed 38477709.

molecular target: Coagulation factor X (Homo sapiens)
Sequence (P00742 41-179 limits assumed): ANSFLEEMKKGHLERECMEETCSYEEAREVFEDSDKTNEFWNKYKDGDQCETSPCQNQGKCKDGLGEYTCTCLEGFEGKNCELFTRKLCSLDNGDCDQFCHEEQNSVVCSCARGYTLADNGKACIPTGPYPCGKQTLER
Sequence (P00742 235-488 limits assumed): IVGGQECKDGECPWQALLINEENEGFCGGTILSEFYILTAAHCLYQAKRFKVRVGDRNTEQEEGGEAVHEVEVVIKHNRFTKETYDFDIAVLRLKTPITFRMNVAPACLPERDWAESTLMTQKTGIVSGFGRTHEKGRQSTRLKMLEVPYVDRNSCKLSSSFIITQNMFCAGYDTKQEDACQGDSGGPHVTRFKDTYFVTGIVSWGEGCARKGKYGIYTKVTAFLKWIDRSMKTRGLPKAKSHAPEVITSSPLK
endpoint label: IC50

Ask: Identify the measured IC50 of `CC(=O)N[C@H]1Cc2ccc(cc2)OCC=CCNC(=O)CC[C@@H](C(=O)N[C@@H](CCCNC(=N)N)C(=O)c2nc3ccccc3s2)NC(=O)[C@H](CC(C)C)NC1=O` for Coagulation factor X (Homo sapiens).
Result: > 20 µM
